Hey, just so you know, these numbers are from paper PMC7017412.

target: F105Y hTMPK (Homo sapiens, UniProt P23919, F105Y); assay: ADP binding constants by two-dimensional NMR lineshape fitting of ADP titration; conditions: ADP binding to F105Y hTMPK with 2 mM AZTMP bound; 34 °C, pH 6.9
Sequence (P23919 whole entry F105Y): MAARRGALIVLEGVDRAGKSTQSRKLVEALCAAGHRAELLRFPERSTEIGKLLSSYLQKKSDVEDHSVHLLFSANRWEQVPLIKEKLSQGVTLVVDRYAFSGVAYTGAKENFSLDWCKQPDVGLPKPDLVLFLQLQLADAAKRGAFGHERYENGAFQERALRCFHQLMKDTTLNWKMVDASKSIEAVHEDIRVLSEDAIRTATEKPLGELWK
metric: Kd (µM)
One number for each entry, in µM.

Recorded Kd (compound "Nc1ncnc2c1ncn2[C@@H]1O[C@H](COP(=O)(O)OP(=O)(O)O)[C@@H](O)[C@H]1O" ): 4.4

* * *

target: F105Y hTMPK (Homo sapiens, UniProt P23919, F105Y); assay: ADP binding constants by two-dimensional NMR lineshape fitting of ADP titration; details: ADP binding to F105Y hTMPK with 2 mM TMP bound; 34 °C, pH 6.9
metric: pKd
One number for each entry, as −log10 of the molar value.

Recorded pKd (molecule Nc1ncnc2c1ncn2[C@@H]1O[C@H](COP(=O)(O)OP(=O)(O)O)[C@@H](O)[C@H]1O [ADP] ): 5.38

* * *

biological target: WT hTMPK (Homo sapiens, UniProt P23919); experiment: ADP binding constants by two-dimensional NMR lineshape fitting of ADP titration; conditions: ADP binding to WT hTMPK with 2 mM TMP bound; 34 °C, pH 6.9
Sequence (P23919 whole entry): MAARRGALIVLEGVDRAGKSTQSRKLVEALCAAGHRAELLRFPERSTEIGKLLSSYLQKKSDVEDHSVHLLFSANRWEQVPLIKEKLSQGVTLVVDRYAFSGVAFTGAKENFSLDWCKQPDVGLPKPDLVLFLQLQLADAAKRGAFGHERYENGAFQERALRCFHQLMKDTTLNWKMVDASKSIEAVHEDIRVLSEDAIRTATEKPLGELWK
metric: pKd
Numbers only, as −log10 of the molar value.

Recorded pKd (compound "Nc1ncnc2c1ncn2[C@@H]1O[C@H](COP(=O)(O)OP(=O)(O)O)[C@@H](O)[C@H]1O" ): 4.82
